# key: entry, value: pIC50
Target: Solute carrier family 22 member 1 (Homo sapiens, UniProt O15245)
Sequence (O15245 whole entry): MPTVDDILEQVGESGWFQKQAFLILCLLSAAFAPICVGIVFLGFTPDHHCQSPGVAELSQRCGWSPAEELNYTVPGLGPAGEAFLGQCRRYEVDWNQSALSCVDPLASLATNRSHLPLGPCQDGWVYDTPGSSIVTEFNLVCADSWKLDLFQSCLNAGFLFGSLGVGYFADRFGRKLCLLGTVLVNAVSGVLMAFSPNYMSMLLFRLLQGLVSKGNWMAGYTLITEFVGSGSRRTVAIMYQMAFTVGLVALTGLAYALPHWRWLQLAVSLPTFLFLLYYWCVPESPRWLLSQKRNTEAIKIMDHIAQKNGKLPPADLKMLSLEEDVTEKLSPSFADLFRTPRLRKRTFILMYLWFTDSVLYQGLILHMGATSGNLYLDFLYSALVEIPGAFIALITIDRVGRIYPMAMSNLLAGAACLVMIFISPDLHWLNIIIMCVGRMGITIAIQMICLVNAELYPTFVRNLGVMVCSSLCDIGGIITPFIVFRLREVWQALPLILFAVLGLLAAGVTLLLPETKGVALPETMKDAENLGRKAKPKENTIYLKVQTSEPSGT
# pIC50: negative log10 of molar concentration; output just the value

# count of solved cases: 4
- CN1CCC[C@@H]1CCO[C@](C)(c1ccccc1)c1ccc(Cl)cc1: 5.31
- CN(C)C(=O)C(CCN1CCC(O)(c2ccc(Cl)cc2)CC1)(c1ccccc1)c1ccccc1 [LOPERAMIDE]: 4.63
- CCCNCC(O)COc1ccccc1C(=O)CCc1ccccc1 (stereo unspecified): 4.95
- CN(C)CCCN1c2ccccc2CCc2ccc(Cl)cc21: 4.71

Given CC12CC3CC(C)(C1)CC(N)(C3)C2 [MEMANTINE] , state its recorded pIC50.
4.57

For the compound shown here, Cc1nccn1CC1CCc2c(c3ccccc3n2C)C1=O (stereo unspecified) , give the reported pIC50.
4.69
